measured-on: Sucrase-isomaltase, intestinal (Homo sapiens)
Sequence (P14410 2-1007 limits assumed): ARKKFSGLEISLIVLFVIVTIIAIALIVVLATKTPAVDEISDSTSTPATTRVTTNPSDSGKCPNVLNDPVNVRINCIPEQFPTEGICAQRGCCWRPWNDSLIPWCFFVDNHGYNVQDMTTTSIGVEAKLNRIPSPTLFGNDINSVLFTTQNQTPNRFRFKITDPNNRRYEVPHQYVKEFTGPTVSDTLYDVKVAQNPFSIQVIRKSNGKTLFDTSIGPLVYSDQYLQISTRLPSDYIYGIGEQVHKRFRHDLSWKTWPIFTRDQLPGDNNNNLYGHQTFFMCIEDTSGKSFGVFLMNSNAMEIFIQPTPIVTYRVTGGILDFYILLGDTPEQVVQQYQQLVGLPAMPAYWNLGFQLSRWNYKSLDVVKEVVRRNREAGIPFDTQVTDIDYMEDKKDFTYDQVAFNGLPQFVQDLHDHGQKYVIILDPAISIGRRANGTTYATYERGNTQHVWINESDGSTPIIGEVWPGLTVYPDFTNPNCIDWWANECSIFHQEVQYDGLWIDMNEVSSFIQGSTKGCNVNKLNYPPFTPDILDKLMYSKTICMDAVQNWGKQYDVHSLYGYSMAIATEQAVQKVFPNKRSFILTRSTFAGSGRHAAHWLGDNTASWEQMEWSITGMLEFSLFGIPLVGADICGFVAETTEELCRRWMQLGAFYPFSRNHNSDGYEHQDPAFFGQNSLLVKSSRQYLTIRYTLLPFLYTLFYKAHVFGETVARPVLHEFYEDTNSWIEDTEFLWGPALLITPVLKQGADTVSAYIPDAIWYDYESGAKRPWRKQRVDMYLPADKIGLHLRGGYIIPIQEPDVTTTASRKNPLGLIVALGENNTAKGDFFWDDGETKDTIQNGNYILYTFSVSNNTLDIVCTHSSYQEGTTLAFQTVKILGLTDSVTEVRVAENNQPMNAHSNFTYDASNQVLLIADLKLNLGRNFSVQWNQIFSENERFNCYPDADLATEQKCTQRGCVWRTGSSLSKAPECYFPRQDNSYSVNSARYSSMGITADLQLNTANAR
Sequence (P14410 1008-1827 limits assumed): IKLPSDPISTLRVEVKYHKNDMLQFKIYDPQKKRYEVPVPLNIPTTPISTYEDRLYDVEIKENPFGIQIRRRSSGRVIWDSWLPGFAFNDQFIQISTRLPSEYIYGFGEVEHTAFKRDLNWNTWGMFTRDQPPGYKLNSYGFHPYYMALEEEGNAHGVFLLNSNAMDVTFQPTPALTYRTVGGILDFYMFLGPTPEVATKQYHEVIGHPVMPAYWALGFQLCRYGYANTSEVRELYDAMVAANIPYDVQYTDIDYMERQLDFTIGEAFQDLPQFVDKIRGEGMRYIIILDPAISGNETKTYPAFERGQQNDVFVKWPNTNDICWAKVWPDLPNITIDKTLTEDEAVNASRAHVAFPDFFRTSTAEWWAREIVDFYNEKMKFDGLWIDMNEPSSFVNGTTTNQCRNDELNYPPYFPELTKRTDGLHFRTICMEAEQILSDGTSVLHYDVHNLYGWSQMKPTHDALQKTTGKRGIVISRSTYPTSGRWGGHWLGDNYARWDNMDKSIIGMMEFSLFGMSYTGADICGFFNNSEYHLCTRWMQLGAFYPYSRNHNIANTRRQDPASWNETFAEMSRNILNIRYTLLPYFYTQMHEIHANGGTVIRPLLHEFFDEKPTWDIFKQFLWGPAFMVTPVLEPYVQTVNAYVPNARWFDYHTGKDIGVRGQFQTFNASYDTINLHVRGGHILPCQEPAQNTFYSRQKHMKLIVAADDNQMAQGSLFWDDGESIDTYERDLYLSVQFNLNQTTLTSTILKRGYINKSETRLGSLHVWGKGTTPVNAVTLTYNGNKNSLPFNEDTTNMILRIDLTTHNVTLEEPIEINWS
property: IC50 (µM)

compound: CC[C@H](C)[C@@H]1NC(=O)[C@H](Cc2ccccc2)N2C(=O)C[C@H](NC(=O)[C@H](Cc3ccccc3)NC(=O)CNC(=O)[C@@H]3CCCN3C(=O)[C@H](CC(C)C)NC1=O)C2=O [GYPSOPHIN]
test-result: 305

FYI, the data here is from ChEMBL document CHEMBL1146207.
